molecular target: hVR1 (Homo sapiens, UniProt Q8NER1); construct: expressed in transfected cells; host or cells: CHO K1 cells (ECACC), stably transfected; experiment: Functional test on human VR1, NADA (N-arachidonoyl dopamine) stimulus; format: cell-based, human being; design: key: agonist / partial agonist / no effect: AG=agonist; pAG=partial agonist; NE=no effect
Sequence (Q8NER1 whole entry): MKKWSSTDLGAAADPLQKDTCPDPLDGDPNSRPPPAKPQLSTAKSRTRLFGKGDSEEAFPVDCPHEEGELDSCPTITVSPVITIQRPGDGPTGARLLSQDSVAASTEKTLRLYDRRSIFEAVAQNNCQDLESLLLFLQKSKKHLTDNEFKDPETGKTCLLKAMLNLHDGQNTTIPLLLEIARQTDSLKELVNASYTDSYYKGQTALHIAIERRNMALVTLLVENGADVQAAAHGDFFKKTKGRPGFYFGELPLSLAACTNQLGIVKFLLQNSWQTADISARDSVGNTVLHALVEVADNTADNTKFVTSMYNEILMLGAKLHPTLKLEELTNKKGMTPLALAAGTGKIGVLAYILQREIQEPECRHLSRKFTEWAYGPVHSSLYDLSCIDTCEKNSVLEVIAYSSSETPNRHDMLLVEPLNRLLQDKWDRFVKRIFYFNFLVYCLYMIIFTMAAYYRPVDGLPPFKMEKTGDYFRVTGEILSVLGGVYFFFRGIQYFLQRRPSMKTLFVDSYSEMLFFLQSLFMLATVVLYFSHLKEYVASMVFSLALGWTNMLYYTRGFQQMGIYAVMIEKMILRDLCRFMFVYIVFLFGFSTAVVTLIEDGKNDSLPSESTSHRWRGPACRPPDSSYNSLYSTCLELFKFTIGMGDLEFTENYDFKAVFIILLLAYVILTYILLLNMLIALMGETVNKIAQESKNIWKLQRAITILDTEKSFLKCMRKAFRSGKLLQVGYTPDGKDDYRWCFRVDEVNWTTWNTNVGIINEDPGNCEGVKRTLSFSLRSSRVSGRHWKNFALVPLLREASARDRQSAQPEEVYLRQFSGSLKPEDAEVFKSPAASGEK
measured_metric: Ki (human being) NADA: agonist / partial agonist / no effect

Please review the following examples before continuing.
# compound, val
data = [
    ("CC(C)(C)c1cc(CNC(=O)Nc2cccc3cnccc23)n(-c2cccc(Cl)c2)n1 [Example 109]", "pAG"),
    ("CC(C(=O)NCc1cc(C(C)(C)C)nn1-c1cccc(Cl)c1)c1ccc2c(c1)CCN2S(C)(=O)=O (centres unmarked) [Example 10]", "pAG"),
    ("CC(C)(C)c1cc(CNC(=O)Nc2cncc3ccccc23)n(-c2cccc(Cl)c2)n1 [Example 112]", "pAG"),
    ("CC(C(=O)NCc1cc(C(C)(C)C)nn1-c1cccc(Cl)c1)c1ccc2c(c1)OCCO2 (centres unmarked) [Example 13]", "pAG"),
    ("Cc1nc2ccc(C(C)C(=O)NCc3cc(C(F)(F)F)nn3-c3cccc(Cl)c3)cc2s1 (centres unmarked) [Example 45]", "pAG"),
    ("CC(C)(C)c1cc(CNC(=O)Nc2cccc3ncccc23)n(-c2cccc(Cl)c2)n1 [Example 111]", "AG"),
    ("CC(C(=O)NCc1cc(C(C)(C)C)nn1-c1cccc(Cl)c1)c1ccc2c(c1)OCO2 (centres unmarked) [Example 11]", "pAG"),
]

Let us move to another entry and its Ki (human being) NADA: agonist / partial agonist / no effect.
# value of Ki (human being) NADA: agonist / partial agonist / no effect, hVR1 (Homo sapiens, UniProt Q8NER1), item CC(C(=O)NCc1cc(C(C)(C)C)nn1-c1cccc(Cl)c1)c1ccc2cc(O)ccc2c1 (centres unmarked) [Example 49] = AG
